Can you tell me switch fluorescence ratio for the items I'm about to list?
Tested on: ATP;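 note: ATP exposure 15 min at 22 °C before imaging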
protocol.text: switch fluorescence ratio, 500 uM ATP over buffer (Cy3 cluster intensity, sum of 5 cycles each) (fold (ratio)); higher = stronger signal-on switching upon ATP binding; sequences stand for … in TCGTCGGCAGCGTCAGATGTGTATAAGAGACAGTTTTTTTTTTTTTTTTTTTTTTTTT…TC
run.parameters: aptamer strand: ATP DNA aptamer (quencher-CACCTGGGGGAGTATTGCGGAGGAAGG + anchor), 100 nM annealed; ATP concentration: 500 uM
Give your answer as a number; write no unit.

# switch fluorescence ratio (sequence: GTCACTAAAG ) is 1.02

# switch fluorescence ratio (sequence: TCGGTGCCTG ) is 1.01

# switch fluorescence ratio (sequence: AGAGGGAACA ) is 1.01

# switch fluorescence ratio (sequence: AGCGTTCTTA ) is 1.02

# switch fluorescence ratio (sequence: CCGTCATCTT ) is 1.02

# switch fluorescence ratio (sequence: ACAATCTCTT ) is 1.02

# switch fluorescence ratio (sequence: ACGTAAAAAG ) is 1.01

# switch fluorescence ratio (sequence: TGGGAATAGG ) is 0.993

# switch fluorescence ratio (sequence: TAGGAGTTAG ) is 1

# switch fluorescence ratio (sequence: TTGGGTGGGT ) is 1

# switch fluorescence ratio (sequence: CATACGAAGT ) is 1.02

# switch fluorescence ratio (sequence: ATAAGGGATG ) is 0.998

# switch fluorescence ratio (sequence: GTCCATTTTG ) is 1.01

# switch fluorescence ratio (sequence: AGAAGAGGGG ) is 0.987

# switch fluorescence ratio (sequence: GGAATAAGGG ) is 0.995

# switch fluorescence ratio (sequence: TCGAATATGT ) is 0.986

# switch fluorescence ratio (sequence: GTGGTGGTTG ) is 1.01

# switch fluorescence ratio (sequence: CTGAAAGATA ) is 0.977

# switch fluorescence ratio (sequence: GTCAGTCTGA ) is 0.98

# switch fluorescence ratio (sequence: AAATTCATAC ) is 1.05

# switch fluorescence ratio (sequence: TAAGGCTCGG ) is 0.994

# switch fluorescence ratio (sequence: TTTTGCTGGG ) is 1.03

# switch fluorescence ratio (sequence: AGGGAAAGTG ) is 0.971

# switch fluorescence ratio (sequence: ATACAAAA ) is 1.02

# switch fluorescence ratio (sequence: CGCAGGGGGC ) is 1.14

# switch fluorescence ratio (sequence: ATAGGTTGTT ) is 0.973

# switch fluorescence ratio (sequence: TTTACTTATT ) is 1

# switch fluorescence ratio (sequence: ATGGGCAGTG ) is 1.02

# switch fluorescence ratio (sequence: CGGACCAACG ) is 1.09

# switch fluorescence ratio (sequence: CAAGTTTACC ) is 1.04

# switch fluorescence ratio (sequence: TGGGTATTAT ) is 1

# switch fluorescence ratio (sequence: AAACTAGAAG ) is 1.01

# switch fluorescence ratio (sequence: TAGATGTTTT ) is 0.986

# switch fluorescence ratio (sequence: TCGGGGGTCG ) is 0.954

# switch fluorescence ratio (sequence: ATATCCAATA ) is 0.99

# switch fluorescence ratio (sequence: GAGGAATGGC ) is 0.983

# switch fluorescence ratio (sequence: TTTGCTGGTT ) is 1.02

# switch fluorescence ratio (sequence: TCTTGATGGG ) is 0.981

# switch fluorescence ratio (sequence: TTTCGACCGA ) is 1.03

# switch fluorescence ratio (sequence: GGGGTTATTT ) is 0.988

# switch fluorescence ratio (sequence: GCTAGTAAAA ) is 1.02

# switch fluorescence ratio (sequence: TTGTGGAGCT ) is 0.999

# switch fluorescence ratio (sequence: ACCGAGGGGG ) is 1.02

# switch fluorescence ratio (sequence: AGCGAGAGAC ) is 1.1

# switch fluorescence ratio (sequence: ATTGTGGGCT ) is 0.967

# switch fluorescence ratio (sequence: TACGTACGCC ) is 1.57

# switch fluorescence ratio (sequence: TTTAAACCGG ) is 1.02

# switch fluorescence ratio (sequence: GCGGGTGGCT ) is 1.03

# switch fluorescence ratio (sequence: TTGCATTATA ) is 1.07

# switch fluorescence ratio (sequence: AGGGTAACGG ) is 0.995

# switch fluorescence ratio (sequence: CGCATTCTGC ) is 1.17

# switch fluorescence ratio (sequence: TATCGGGGGT ) is 1.02

# switch fluorescence ratio (sequence: TAGTGTGTTG ) is 0.996

# switch fluorescence ratio (sequence: AAAAAGTTGG ) is 1.01

# switch fluorescence ratio (sequence: ACGAAAACGC ) is 1.36

# switch fluorescence ratio (sequence: CTATGACGTT ) is 0.998

# switch fluorescence ratio (sequence: ATGGGGTAGC ) is 0.995

# switch fluorescence ratio (sequence: TTTTTATTGA ) is 1

# switch fluorescence ratio (sequence: CCGCGGGTCG ) is 1.05

# switch fluorescence ratio (sequence: TTGGAGGCCC ) is 0.98

# switch fluorescence ratio (sequence: CAAAGGGCAT ) is 1.02

# switch fluorescence ratio (sequence: TTCTATTTCT ) is 0.987

# switch fluorescence ratio (sequence: TGACGCGCGT ) is 1.01

# switch fluorescence ratio (sequence: ATGGTGTGG ) is 1.02

# switch fluorescence ratio (sequence: AGGGTGGAAT ) is 1.07

# switch fluorescence ratio (sequence: TGGAGTAATT ) is 1.06

# switch fluorescence ratio (sequence: GAAGGAACGT ) is 0.981

# switch fluorescence ratio (sequence: TAAATTATTC ) is 1.04

# switch fluorescence ratio (sequence: TGGTGGGGTA ) is 0.998

# switch fluorescence ratio (sequence: TGGATGCATT ) is 1.03

# switch fluorescence ratio (sequence: TGGTATGCCC ) is 1.04

# switch fluorescence ratio (sequence: TTCATATAGG ) is 0.984

# switch fluorescence ratio (sequence: CGTTCTATTG ) is 1.02

# switch fluorescence ratio (sequence: TGTTCTAAAG ) is 0.997

# switch fluorescence ratio (sequence: GAGGGGTTG ) is 0.988
